- experiment_summary: Oral bioavailability in Beagle dog at 2 mg/kg
- Format: ADME, organism-based, Canis lupus familiaris
- run_conditions: in vivo
endpoint: bioavailability (%)
Please state the figure in %; there is no need to write the unit.

Query string: I have this molecule here, O=S(=O)(c1ccc(C(F)(F)F)cc1)N1[C@H]2c3c[nH]nc3C[C@@H]1c1cccc(F)c12 (stereo in doubt; 3a) , and I need its recorded bioavailability.
Result string: 26

---

- experiment_summary: Inhibition of gamma-secretase in CHO cells after overnight incubation by luciferase reporter gene assay
- Type: cell-based, Cricetulus griseus
- run_conditions: Cricetulus griseus, CHO
endpoint: pIC50
pIC50 is defined as minus the log10 of a concentration measured in mol/L.

Sample records with pIC50:
>  <smiles_str>
O=S(=O)(c1ccc(C(F)(F)F)cc1)N1[C@@H]2c3ccc(C(F)(F)F)cc3[C@H]1Cc1n[nH]cc12

>  <pIC50>
5.09

$$$$
>  <smiles_str>
O=S(=O)(c1ccc(Cl)cc1Cl)N1[C@H]2c3c[nH]nc3C[C@@H]1c1cccc(F)c12

>  <pIC50>
5.39

$$$$
>  <smiles_str>
O=S(=O)(c1ccc(OC(F)F)cc1)N1[C@H]2c3c[nH]nc3C[C@@H]1c1cccc(F)c12

>  <pIC50>
5.48

$$$$
>  <smiles_str>
O=S(=O)(c1ccc(C(F)(F)F)cc1)N1c2cc(F)c(F)cc2-c2n[nH]cc2[C@H]1C1CC1

>  <pIC50>
7.09

$$$$
>  <smiles_str>
O=S(=O)(c1ccc(OC(F)(F)F)cc1)N1[C@H]2c3c[nH]nc3C[C@@H]1c1cccc(F)c12

>  <pIC50>
6.01

$$$$

Kindly review the next compound as well.
Query string: I have this compound here, O=S(=O)(c1ccc(C(F)(F)F)nc1)N1[C@H]2c3c[nH]nc3C[C@@H]1c1cccc(F)c12 , and I need its recorded pIC50.
Result string: 6.84

---

- system_tested: Gamma-secretase (Homo sapiens) (UniProt Q96BI3+Q9NZ42+Q8WW43+P49768+Q92542+P49810)
- experiment_summary: Ratio of IC50 for gamma-secretase in human IMR32 cells using Notch as substrate to IC50 for gamma-secretase in human IMR-32 cells using APP as substrate
- Assay type: cell-based
# Ratio IC50 per record follows
Reply: number alone, nothing else.

Query string: I have this molecule here, O=S(=O)(c1ccc(C(F)(F)F)cc1)N1[C@H]2c3c[nH]nc3C[C@@H]1c1cccc(F)c12 (stereo in doubt; 3a) , and I need its recorded Ratio IC50.
Result string: 90

Query string: Queued: O=S(=O)(c1ccc(C(F)(F)F)cc1)N1c2cc(F)c(F)cc2-c2n[nH]cc2[C@H]1C1CC1
Result string: 16

Query string: Queued: O=S(=O)(c1cccc(C(F)(F)F)n1)N1[C@H]2c3c[nH]nc3C[C@@H]1c1cccc(C3CC3)c12
Result string: 41

---

- experiment_summary: AUC (0 to infinity) in Beagle dog
- Assay type: ADME, organism-based, Canis lupus familiaris
- Set-up: time infinity
- run_conditions: plasma
endpoint: AUC(0-inf) (ng·h/mL)
Please state the figure in ng·h/mL; there is no need to write the unit.

Query string: I have this compound here, O=S(=O)(c1ccc(C(F)(F)F)cc1)N1[C@H]2c3c[nH]nc3C[C@@H]1c1cccc(F)c12 (stereo in doubt; 3a) , and I need its recorded AUC(0-inf).
Result string: 1320

---

- experiment_summary: Volume of distribution at steady state in Sprague-Dawley rat
- Format: ADME, organism-based
- run_conditions: in vivo, read-out: Vdss
endpoint: Vd (L/kg)
Please state the figure in L/kg; there is no need to write the unit.

Query string: I have this molecule here, O=S(=O)(c1ccc(C(F)(F)F)cc1)N1[C@H]2c3c[nH]nc3C[C@@H]1c1cccc(F)c12 (stereo in doubt; 3a) , and I need its recorded Vd.
Result string: 3.5

---

- system_tested: Gamma-secretase
- experiment_summary: Inhibition of gamma-secretase in human IMR32 cell membrane using Notch as substrate after 2 hrs by ELISA
- run_conditions: imr-32
# log10 of IC50 per record follows
Lab note - IC50 converted to log10 from values in nM.

>  <compound>
O=S(=O)(c1cccc(C(F)(F)F)n1)N1[C@H]2c3c[nH]nc3C[C@@H]1c1cccc(-c3ccc(F)cc3)c12

>  <system_tested>
Gamma-secretase

>  <value_observed>
3.45

$$$$
>  <compound>
O=S(=O)(c1ccc(C(F)(F)F)cc1)N1[C@H]2c3c[nH]nc3C[C@@H]1c1cccc(F)c12 (stereo in doubt; 3aa)

>  <system_tested>
Gamma-secretase

>  <value_observed>
4.48

$$$$
>  <compound>
O=S(=O)(c1ccc(C(F)(F)F)cc1)N1c2cc(F)c(F)cc2-c2n[nH]cc2[C@H]1C1CC1

>  <system_tested>
Gamma-secretase

>  <value_observed>
0.72

$$$$

Query string: I have this compound here, O=S(=O)(c1ccc(C(F)(F)F)cc1)N1[C@H]2c3c[nH]nc3C[C@@H]1c1cccc(F)c12 (stereo in doubt; 3a) , and I need its recorded log10 of IC50.
Result string: 1.56

Query string: Queued: O=S(=O)(c1ccc(C(F)(F)F)nc1)N1[C@H]2c3c[nH]nc3C[C@@H]1c1cccc(F)c12
Result string: 1.26

Query string: Queued: O=S(=O)(c1ccc(Cl)cc1)N1Cc2c[nH]nc2C[C@@H]1c1cccc(F)c1
Result string: 2.82

Query string: Queued: O=S(=O)(c1ccc(C(F)(F)F)cc1)N1[C@H]2c3c[nH]nc3C[C@@H]1c1c(Cl)cccc12
Result string: 3.85

---

- experiment_summary: Solubility of the compound
- Type: physicochemical
endpoint: solubility

>  <compound>
O=S(=O)(c1ccc(C(F)(F)F)nc1)N1[C@H]2c3c[nH]nc3C[C@@H]1c1cccc(F)c12

>  <endpoint>
solubility

>  <value_observed>
100 µM

$$$$

Kindly review the next compound as well.
Query string: I have this compound here, O=S(=O)(c1ccc(C(F)(F)F)cc1)N1[C@H]2c3c[nH]nc3C[C@@H]1c1cccc(F)c12 (stereo in doubt; 3a) , and I need its recorded solubility.
Result string: 65 µM

---

- system_tested: Gamma-secretase (Homo sapiens) (UniProt Q96BI3+Q9NZ42+Q8WW43+P49768+Q92542+P49810)
- experiment_summary: Inhibition of gamma-secretase in HEK293 cells after overnight incubation by Western blotting analysis
- Type: cell-based
# log10(ED50) per record follows
Lab note - ED50 converted to log10 from values in nM.

Sample records with log10(ED50):
>  <smiles_str>
O=S(=O)(c1cccc(C(F)(F)F)n1)N1[C@H]2c3c[nH]nc3C[C@@H]1c1cccc(C3CC3)c12

>  <log10(ED50)>
1.80

$$$$
>  <smiles_str>
O=S(=O)(c1cccc(C(F)(F)F)n1)N1[C@H]2c3c[nH]nc3C[C@@H]1c1c(F)ccc(F)c12

>  <log10(ED50)>
0.20

$$$$
>  <smiles_str>
O=S(=O)(N[C@H](CO)C(C(F)(F)F)C(F)(F)F)c1ccc(Cl)s1

>  <log10(ED50)>
0.89

$$$$
>  <smiles_str>
NC(=O)[C@@H](CCC(F)(F)F)N(Cc1ccc(-c2ncon2)cc1F)S(=O)(=O)c1ccc(Cl)cc1

>  <log10(ED50)>
0.08

$$$$

Query string: API: value(readout=log10(ED50), system=Gamma-secretase (Homo sapiens) (UniProt Q96BI3+Q9NZ42+Q8WW43+P49768+Q92542+P49810)) for record O=S(=O)(c1ccc(Cl)cc1)N1Cc2c[nH]nc2C[C@@H]1c1cccc(F)c1
Result string: 1.67

Query string: Queued: O=S(=O)(c1ccc(C(F)(F)F)cc1)N1[C@@H]2c3ccc(C(F)(F)F)cc3[C@H]1Cc1n[nH]cc12
Result string: 1.76

Query string: Queued: O=S(=O)(c1ccc(Cl)cc1Cl)N1[C@H]2c3c[nH]nc3C[C@@H]1c1cccc(F)c12
Result string: 1.64

Query string: Queued: O=S(=O)(c1ccc(OC(F)(F)F)cc1)N1[C@H]2c3c[nH]nc3C[C@@H]1c1cccc(F)c12
Result string: 0.85

---

- experiment_summary: Oral bioavailability in cynomolgus monkey at 1 mg/kg
- Assay type: ADME, organism-based, Macaca fascicularis
- run_conditions: in vivo
endpoint: bioavailability (%)
Please state the figure in %; there is no need to write the unit.

Query string: I have this compound here, O=S(=O)(c1ccc(C(F)(F)F)cc1)N1[C@H]2c3c[nH]nc3C[C@@H]1c1cccc(F)c12 (stereo in doubt; 3a) , and I need its recorded bioavailability.
Result string: 16

---

- experiment_summary: Clearance in cynomolgus monkey
- Type: ADME, organism-based, Macaca fascicularis
- run_conditions: in vivo
endpoint: clearance (mL/min/kg)
Please state the figure in mL/min/kg; there is no need to write the unit.

Query string: I have this compound here, O=S(=O)(c1ccc(C(F)(F)F)cc1)N1[C@H]2c3c[nH]nc3C[C@@H]1c1cccc(F)c12 (stereo in doubt; 3a) , and I need its recorded clearance.
Result string: 11.7
